Molecular target: human FPR2 (Homo sapiens (Human))
Sequence (P25090 whole entry): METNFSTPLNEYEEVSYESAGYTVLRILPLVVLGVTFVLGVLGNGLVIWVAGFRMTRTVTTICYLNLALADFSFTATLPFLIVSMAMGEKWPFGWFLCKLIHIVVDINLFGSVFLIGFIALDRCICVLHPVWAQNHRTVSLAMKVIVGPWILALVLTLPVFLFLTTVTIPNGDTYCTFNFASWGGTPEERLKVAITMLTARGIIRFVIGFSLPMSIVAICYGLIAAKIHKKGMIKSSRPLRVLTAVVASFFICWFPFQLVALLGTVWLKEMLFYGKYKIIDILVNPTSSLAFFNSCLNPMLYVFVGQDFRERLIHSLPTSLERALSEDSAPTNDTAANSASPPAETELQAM
Assay: FPR2 cyclic adenosine monophosphate (cAMP) assay
Conditions: CHO cells overexpressing human FPR2; forskolin 5 µM; inhibition of cAMP production; read-out: hFPR2 cAMP2 EC50
pEC50: −log10 of the molar value.
Lab note: compare pEC50 against 9. Equal or greater, write 1 (yes). Smaller, write 0 (no).

Q: Hi team, for COc1ccc([C@@H]2CN(c3c(C)ccn(CC(F)F)c3=O)C(=O)[C@H]2NC(=O)c2ccc(OC(F)F)cc2)c(F)c1 , is the recorded pEC50 at or above 9?
Ans: 1 (yes)

Q: Hi team, for COc1cc(F)c([C@H]2[C@H](NC(=O)c3ccc(OC(F)F)cc3)C(=O)N(c3cncn(CC(F)F)c3=O)[C@H]2C)c(F)c1 , is the recorded pEC50 at or above 9?
Ans: 0 (no)

Q: Hi team, for COCCn1cccc(N2C[C@@H](c3c(F)cc(OC)cc3F)[C@H](NC(=O)c3ccc(OC(F)(F)F)cc3)C2=O)c1=O [Example 37] , is the recorded pEC50 at or above 9?
Ans: 0 (no)

Q: Hi team, for COCCn1cc(C)c(C)c(N2C[C@@H](c3c(F)cc(OC)cc3F)C(NC(=O)c3ccc(Cl)cc3)C2=O)c1=O (stereo partly drawn) [Example 640] , is the recorded pEC50 at or above 9?
Ans: 0 (no)
